tested on: OVCAR-5 ovarian; assay: NCI tumour cell line growth inhibition, 48 h
Mark f for TGI values under 20 µM, and t for everything at or above.

Observe how each entry below is paired with its result.
CC(=O)OC1Oc2cc(C)c(C)cc2-c2oc(=O)c(-c3ccc(F)cc3)cc21 (stereo not drawn)	t
CCC(CCN)(CCN)[N+](=O)[O-]	t
COCCN(CCOC)C(=O)COc1c2cc(C(C)(C)C)cc1Cc1cc(C(C)(C)C)cc(c1OCC(=O)N(CCOC)CCOC)Cc1cc(C(C)(C)C)cc(c1OCC(=O)N(CCOC)CCOC)Cc1cc(C(C)(C)C)cc(c1OCC(=O)N(CCOC)CCOC)Cc1cc(C(C)(C)C)cc(c1OCC(=O)N(CCOC)CCOC)C2	f

Exam item: decide whether the reported TGI for CC(C)n1c(=O)n(C)c2cnc3cc(F)c(-c4ccc(OCCCN5CCCCC5)nc4)cc3c21 is at least 20 µM.
t

Exam item: decide whether the reported TGI for O=Nc1sc(=N\O)/c(=N/O)sc1NO is at least 20 µM.
t

Exam item: decide whether the reported TGI for COC1OC(COS(=O)(=O)c2ccc(C)cc2)C(O)C(OS(=O)(=O)c2ccc(C)cc2)C1OS(=O)(=O)c1ccc(C)cc1 (stereo not drawn) is at least 20 µM.
t

Exam item: decide whether the reported TGI for Cc1ccc(C(=O)C#Cc2c[nH]c(=O)[nH]c2=O)cc1 is at least 20 µM.
t

Exam item: decide whether the reported TGI for CCCc1nc(NC#N)nc(C(=O)NC23CC4CC(CC(C4)C2)C3)c1C is at least 20 µM.
t

Exam item: decide whether the reported TGI for O=C(Nc1ccc(OCc2nnc(-c3ccccc3)o2)c(F)c1)Nc1ccc(Cl)c(C(F)(F)F)c1 is at least 20 µM.
t

Exam item: decide whether the reported TGI for COc1ccc2c(c1)/C(=C\c1c(Cl)n(C)c3ccccc13)C(=O)N2 is at least 20 µM.
f

Exam item: decide whether the reported TGI for CN(C)[C@H]1CC[C@H]2[C@@H]3CCC4C[C@@H](NC(=O)NC(Cc5ccccc5)c5nccs5)CC[C@]4(C)[C@H]3CC[C@]12C (stereo partly drawn) is at least 20 µM.
f

Exam item: decide whether the reported TGI for O=C1C2=Cc3ccccc3OC2(O)Oc2ccc(O)cc21 (stereo not drawn) is at least 20 µM.
t

Exam item: decide whether the reported TGI for O=[N+]([O-])c1ccc(N/N=C(\c2ccccc2)c2ccccn2)nc1 is at least 20 µM.
t

Exam item: decide whether the reported TGI for CCn1c(-c2nonc2N)nc2cncc(C(=O)NCCNC)c21 is at least 20 µM.
t

Exam item: decide whether the reported TGI for O=S(=O)(CCNCc1ccc(-c2ccc3ncnc(Nc4ccc(OCc5cccc(F)c5)c(Cl)c4)c3c2)o1)c1ccccc1 is at least 20 µM.
t

Exam item: decide whether the reported TGI for C/C=C1\CNC1C(=O)O (stereo not drawn) is at least 20 µM.
t

Exam item: decide whether the reported TGI for CCN(CC)CCCCNc1ncc2cc(-c3cc(OC)cc(OC)c3)c(NC(=O)NC(C)(C)C)nc2n1 is at least 20 µM.
t

Exam item: decide whether the reported TGI for Clc1ccc(C2=C(c3ccccc3)C(c3ccc(Cl)cc3)N3C(=N[C@H]4CCCC[C@@H]43)N2)cc1 (stereo partly drawn) is at least 20 µM.
t
